# Tested on: Candida albicans
# measurement.notes: Antimicrobial activity against Candida albicans after 16 hrs by serial dilution method
# Assay type: functional
readout.kind: MIC (µg/mL)
Numbers only, in µg/mL.

{"columns": ["item.smiles", "unit.descriptor", "MIC"],
 "data": [
  ["O=C(CSc1nc2ccccc2o1)N/N=C/c1c[nH]nc1-c1ccc(Cl)cc1Cl", "µg/mL", 12.5],
  ["Clc1cc(Cl)c2oc(N/N=C/c3c[nH]nc3-c3ccc(-c4ccccc4)cc3)nc2c1", "µg/mL", 25],
  ["O=C(CSc1nc2ccccc2o1)N/N=C/c1c[nH]nc1-c1cc(Cl)sc1Cl", "µg/mL", 25]
]}

Below are some compounds; for each one, tell me its MIC.
1. Sc1nnc(COc2cccc3ccccc23)n1/N=C/c1c[nH]nc1-c1ccc(Cl)cc1Cl
2. Clc1ccc(-c2n[nH]cc2/C=N/Nc2nc3cc(Cl)cc(Cl)c3o2)c(Cl)c1
3. Clc1cc(Cl)c2oc(N/N=C/c3c[nH]nc3-c3cc(Cl)sc3Cl)nc2c1

[reply]
12.5
12.5
12.5

Below are some compounds; for each one, tell me its MIC.
1. CSc1ccc(-c2n[nH]cc2/C=N/NC(=O)CSc2nc3ccccc3o2)cc1
2. Cc1ccc(-c2nnc(S)n2/N=C/c2c[nH]nc2-c2ccc(Cl)cc2Cl)cn1

[reply]
1. 12.5
2. 6.25

---

Consider the following compounds; for each one, report its MIC.
# Test system: Staphylococcus aureus
# measurement.notes: Antimicrobial activity against Staphylococcus aureus after 16 hrs by serial dilution method
# Type: functional
Answers are plain numbers, in µg/mL.

Here is how some compounds turned out for MIC.
{"columns": ["item.smiles", "tested.target", "unit.descriptor", "observed.value"],
 "data": [
  ["Sc1nnc(COc2cccc3ccccc23)n1/N=C/c1c[nH]nc1-c1ccc(Cl)cc1Cl", "Staphylococcus aureus", "µg/mL", 6.25],
  ["Clc1cc(Cl)c2oc(N/N=C/c3c[nH]nc3-c3cc(Cl)sc3Cl)nc2c1", "Staphylococcus aureus", "µg/mL", 3.12],
  ["Clc1cc(Cl)c2oc(N/N=C/c3c[nH]nc3-c3ccc(-c4ccccc4)cc3)nc2c1", "Staphylococcus aureus", "µg/mL", 12.5],
  ["CSc1ccc(-c2n[nH]cc2/C=N/n2c(S)nnc2-c2ccncc2)cc1", "Staphylococcus aureus", "µg/mL", 3.12],
  ["Cc1ccc(-c2nnc(S)n2/N=C/c2c[nH]nc2-c2ccc(Cl)cc2Cl)cn1", "Staphylococcus aureus", "µg/mL", 3.12]
]}

Below are some compounds; for each one, tell me its MIC.
1. Sc1nnc(COc2cccc3ccccc23)n1/N=C/c1c[nH]nc1-c1cc(Cl)sc1Cl
2. CSc1ccc(-c2n[nH]cc2/C=N/NC(=O)CSc2nc3ccccc3o2)cc1
3. O=C(CSc1nc2ccccc2o1)N/N=C/c1c[nH]nc1-c1ccc(-c2ccccc2)cc1

[reply]
1: 1.61; 2: 6.25; 3: 12.5

Below are some compounds; for each one, tell me its MIC.
1. O=C(CSc1nc2ccccc2o1)N/N=C/c1c[nH]nc1-c1cc(Cl)sc1Cl
2. CO/N=C(\C(=O)N[C@@H]1C(=O)N2C(C(=O)O)=C(CSc3nc(=O)c(O)nn3C)CS[C@H]12)c1csc(N)n1
3. CSc1ccc(-c2n[nH]cc2/C=N/Nc2nc3cc(Cl)cc(Cl)c3o2)cc1
4. Clc1ccc(-c2n[nH]cc2/C=N/Nc2nc3cc(Cl)cc(Cl)c3o2)c(Cl)c1
5. O=C(CSc1nc2ccccc2o1)N/N=C/c1c[nH]nc1-c1ccc(Cl)cc1Cl

[reply]
6.25
3.12
6.25
12.5
12.5

---

Consider the following compounds; for each one, report its MIC.
# Test system: Candida albicans
# measurement.notes: Antimicrobial activity against Candida albicans after 16 hrs by serial dilution method
# Format: functional
Answers are plain numbers, in µg/mL.

{"columns": ["item.smiles", "tested.target", "readout.kind", "observed.value"],
 "data": [
  ["Sc1nnc(COc2cccc3ccccc23)n1/N=C/c1c[nH]nc1-c1cc(Cl)sc1Cl", "Candida albicans", "MIC", 6.25],
  ["CSc1ccc(-c2n[nH]cc2/C=N/Nc2nc3cc(Cl)cc(Cl)c3o2)cc1", "Candida albicans", "MIC", 25],
  ["OC(Cn1cncn1)(Cn1cncn1)c1ccc(F)cc1F", "Candida albicans", "MIC", 6.25],
  ["O=C(CSc1nc2ccccc2o1)N/N=C/c1c[nH]nc1-c1ccc(-c2ccccc2)cc1", "Candida albicans", "MIC", 25]
]}

Please look at the following compound next.
[ask] Form entry - test system: Candida albicans; read-out: MIC; compound: CSc1ccc(-c2n[nH]cc2/C=N/n2c(S)nnc2-c2ccncc2)cc1
[reply] 12.5

---

Consider the following compounds; for each one, report its MIC.
# Tested on: Pseudomonas aeruginosa
# measurement.notes: Antimicrobial activity against Pseudomonas aeruginosa after 16 hrs by serial dilution method
# Format: functional
Numbers only, in µg/mL.

Here is how some compounds turned out for MIC.
{"columns": ["compound", "observed.value"],
 "data": [
  ["O=C(CSc1nc2ccccc2o1)N/N=C/c1c[nH]nc1-c1ccc(Cl)cc1Cl", 6.25],
  ["O=C(CSc1nc2ccccc2o1)N/N=C/c1c[nH]nc1-c1ccc(-c2ccccc2)cc1", 12.5],
  ["Clc1cc(Cl)c2oc(N/N=C/c3c[nH]nc3-c3ccc(-c4ccccc4)cc3)nc2c1", 12.5],
  ["O=C(CSc1nc2ccccc2o1)N/N=C/c1c[nH]nc1-c1cc(Cl)sc1Cl", 6.25],
  ["Sc1nnc(COc2cccc3ccccc23)n1/N=C/c1c[nH]nc1-c1cc(Cl)sc1Cl", 1.61],
  ["CO/N=C(\\C(=O)N[C@@H]1C(=O)N2C(C(=O)O)=C(CSc3nc(=O)c(O)nn3C)CS[C@H]12)c1csc(N)n1 [CEFTRIAXONE]", 1.61],
  ["Sc1nnc(COc2cccc3ccccc23)n1/N=C/c1c[nH]nc1-c1ccc(Cl)cc1Cl", 1.61],
  ["Clc1cc(Cl)c2oc(N/N=C/c3c[nH]nc3-c3cc(Cl)sc3Cl)nc2c1", 3.12],
  ["Cc1ccc(-c2nnc(S)n2/N=C/c2c[nH]nc2-c2ccc(Cl)cc2Cl)cn1", 1.61],
  ["CSc1ccc(-c2n[nH]cc2/C=N/Nc2nc3cc(Cl)cc(Cl)c3o2)cc1", 12.5]
]}

Below are some compounds; for each one, tell me its MIC.
1. Clc1ccc(-c2n[nH]cc2/C=N/Nc2nc3cc(Cl)cc(Cl)c3o2)c(Cl)c1
2. CSc1ccc(-c2n[nH]cc2/C=N/n2c(S)nnc2-c2ccncc2)cc1

[reply]
[3.12, 6.25]

[ask] Field request: MIC | item: CSc1ccc(-c2n[nH]cc2/C=N/NC(=O)CSc2nc3ccccc3o2)cc1
[reply] 6.25

---

# Tested on: Rattus norvegicus
# measurement.notes: Analgesic activity against Wistar albino rat at 200 mg/kg, ip measured immediately after compound administration by tail flick method (reference value: 1.9 +/- 0.12 %)
# Assay type: functional
# condition.info: route intraperitoneal, read-out: INH
Consider the following compounds; for each one, report its tail-flick reaction time at 200 mg/kg.
Numbers only, in %.

{"columns": ["item.smiles", "tested.target", "readout.kind", "unit.descriptor", "observed.value"],
 "data": [
  ["Clc1ccc(-c2n[nH]cc2/C=N/Nc2nc3cc(Cl)cc(Cl)c3o2)c(Cl)c1", "Rattus norvegicus", "tail-flick reaction time at 200 mg/kg", "%", 2.75],
  ["O=C(CSc1nc2ccccc2o1)N/N=C/c1c[nH]nc1-c1cc(Cl)sc1Cl", "Rattus norvegicus", "tail-flick reaction time at 200 mg/kg", "%", 2.55],
  ["CSc1ccc(-c2n[nH]cc2/C=N/n2c(S)nnc2-c2ccncc2)cc1", "Rattus norvegicus", "tail-flick reaction time at 200 mg/kg", "%", 2.62],
  ["Cc1ccc(-c2nnc(S)n2/N=C/c2c[nH]nc2-c2ccc(Cl)cc2Cl)cn1", "Rattus norvegicus", "tail-flick reaction time at 200 mg/kg", "%", 2.93]
]}

Please look at the following compound next.
[ask] Form entry - test system: Rattus norvegicus; read-out: tail-flick reaction time at 200 mg/kg; compound: Clc1cc(Cl)c2oc(N/N=C/c3c[nH]nc3-c3ccc(-c4ccccc4)cc3)nc2c1
[reply] 2.43
